System: PPARg:RXRa (NR concentration 180 nM, RXRa partner concentration 90 nM)
Assay: PBM binding z-score (relative to random genomic background probes); higher = stronger binding; sequences stand for … in GC…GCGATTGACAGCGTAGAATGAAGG
Given measured PBM binding z-score, output met if it is greater than or equal to 1 and not met if not.

INPUT SEQUENCE	STUDY SYSTEM	GROUP
ATACCAAGGGGATCGTGAGGTCGTTGATACTAAC	PPARg:RXRa (NR concentration 180 nM, RXRa partner concentration 90 nM)	not met
AGAATGAGGTTACGAAAGATCAGGGAAACGCTTG	PPARg:RXRa (NR concentration 180 nM, RXRa partner concentration 90 nM)	met
TCTTATAGATCAACAGGAGGTTAAGAAAGATCGA	PPARg:RXRa (NR concentration 180 nM, RXRa partner concentration 90 nM)	not met
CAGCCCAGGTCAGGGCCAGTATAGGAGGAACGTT	PPARg:RXRa (NR concentration 180 nM, RXRa partner concentration 90 nM)	not met
ATATGTAGGTTAGCTGGGGTCATTCTGACTAGGC	PPARg:RXRa (NR concentration 180 nM, RXRa partner concentration 90 nM)	met
TGAATAAGGTTAAAGATCAGGGAACGTGGCGTCG	PPARg:RXRa (NR concentration 180 nM, RXRa partner concentration 90 nM)	met
